The measurements presented in this section are drawn from the Human Domainome abundance scans (Beltran et al. 2025).

B1: Homeobox protein cut-like 1, residues 548 to 629; numbered along this chain, P39880 (parent)
chain: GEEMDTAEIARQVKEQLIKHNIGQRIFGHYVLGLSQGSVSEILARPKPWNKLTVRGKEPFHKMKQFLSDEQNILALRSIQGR

Variants of: B1
protocol-text: abundance fitness (aPCA) (normalised: wild type 0, dead -1); higher = more abundant; growth selection in yeast, the domain comes from the species named
condition-parameters: Homo sapiens
Reported abundance fitness values are given for each entry in this list.

variant-code: M63D
abundance fitness: -0.949
--
variant-code: D69T
abundance fitness: -0.181
--
variant-code: K19I
abundance fitness: -0.244
--
variant-code: L17W
abundance fitness: -0.808
--
variant-code: I9C
abundance fitness: -0.459
--
variant-code: G37S
abundance fitness: 0.024
--
variant-code: D5H
abundance fitness: -0.294
--
variant-code: L32I
abundance fitness: -0.562
--
variant-code: A7E
abundance fitness: -0.029
--
variant-code: Q71Y
abundance fitness: -0.257
--
variant-code: V13Q
abundance fitness: -0.574
--
variant-code: V13K
abundance fitness: -0.548
--
variant-code: L52I
abundance fitness: -0.538
--
variant-code: R55G
abundance fitness: -0.011
--
variant-code: L74S
abundance fitness: -0.083
--
variant-code: I22L
abundance fitness: -0.239
--
variant-code: Q71F
abundance fitness: -0.204
--
variant-code: Q80P
abundance fitness: -0.098
--
variant-code: Q80S
abundance fitness: -0.017
--
variant-code: G56L
abundance fitness: -0.098
--
variant-code: E15N
abundance fitness: -0.328
--
variant-code: L67N
abundance fitness: -0.582
